Taken from PubChem BioAssay AID2253.

test system: THP-1 viability, CellTiter-Glo luminescence, 72 h; assay: THP-1 cell cytotoxicity, dose response, cytotoxicity control for Salmonella PhoP regulon inhibitors, S. typhimurium screen hits (AID 2253)
# reported EC50; entries follow
MEASURED ENDPOINT: EC50

- COMPOUND: "Clc1ccc(C[n+]2cc(-c3ccc(Cl)cc3)n3c2CCC3)cc1"
  MEASURED VALUE: "17.7 µM"
- COMPOUND: "O=C(Nc1ccccc1)Nc1ccc(Cl)c([N+](=O)[O-])c1"
  MEASURED VALUE: "14.2 µM"
- COMPOUND: "CC(=O)NC(c1cccs1)c1cc([N+](=O)[O-])c2cccnc2c1O (centres undefined)"
  MEASURED VALUE: "10.1 µM"
- COMPOUND: "Oc1cc(Cl)ccc1Oc1ccc(Cl)cc1Cl"
  MEASURED VALUE: "33.9 µM"
- COMPOUND: "Cc1ccc(S(=O)(=O)N(CC(=O)N=Nc2c(O)[nH]c3ccccc23)c2ccc(C)c(C)c2)cc1"
  MEASURED VALUE: "12.4 µM"
- COMPOUND: "O=C(N/N=C/c1ccc(O)cc1O)/C(=C/c1ccccc1)CCO"
  MEASURED VALUE: "4.05 µM"
- COMPOUND: "COC(=O)c1cc(C)nc2c1C(=O)C(=O)C=C2N1CCOCC1"
  MEASURED VALUE: "2.97 µM"
- COMPOUND: "Nc1ccc(N(c2ccccc2)c2ccc(N)cc2)cc1"
  MEASURED VALUE: "4.85 µM"
- COMPOUND: "O=c1[nH]c(NNC(=S)NCc2ccccc2)nc2c1C1(CCCCC1)Cc1ccccc1-2"
  MEASURED VALUE: "45.1 µM"
- COMPOUND: "Oc1ccc(C=Nc2ccc3ncccc3c2)c(O)c1"
  MEASURED VALUE: "14.2 µM"
- COMPOUND: "Cc1c2ccncc2c(C)c2c1[nH]c1ccccc12"
  MEASURED VALUE: "2.53 µM"
- COMPOUND: "COc1cccc(C2CC(=O)Nc3cc(OC)c(OC)c(OC)c32)c1OC (centres undefined)"
  MEASURED VALUE: "46.2 µM"
- COMPOUND: "Clc1ccc(OCCn2ccnc2)c2ccccc12"
  MEASURED VALUE: "43.5 µM"
- COMPOUND: "Cc1cc(NC(c2cccnc2)c2ccc3cccnc3c2O)no1 (centres undefined)"
  MEASURED VALUE: "1.79 µM"
- COMPOUND: "C=CCc1cccc(C2Nc3ccccc3C(=O)N2O)c1O (centres undefined)"
  MEASURED VALUE: "43.1 µM"
- COMPOUND: "COc1cc(/C=C/[N+](=O)[O-])ccc1O"
  MEASURED VALUE: "12.6 µM"
- COMPOUND: "Cc1nc2c(C(=O)NCCC(C)C)c[nH]n2c(=O)c1Cc1ccccc1F"
  MEASURED VALUE: "30.7 µM"
- COMPOUND: "CCOC(=O)Cc1csc(NC(=O)NC2(C(F)(F)F)Oc3cc(Cl)c(Cl)cc3O2)n1"
  MEASURED VALUE: "26 µM"
- COMPOUND: "c1ccc(Nc2nc3ccccc3[nH]2)nc1"
  MEASURED VALUE: "30.6 µM"
- COMPOUND: "CC(O)CNCCNCc1c(OCc2ccccc2)ccc2ccccc12 (centres undefined)"
  MEASURED VALUE: "14.2 µM"
- COMPOUND: "Cc1ccc(-c2cc(C(=O)Nc3nccs3)c3ccccc3n2)o1"
  MEASURED VALUE: "31.7 µM"
- COMPOUND: "C#CCOCCOCCOCCNc1nc(N2CCN(C(=O)CCCCCCCCCCNC(=O)[C@H](CCCN=C(N)N)n3cc(C[C@@H](C)CC)nn3)CC2)nc(N2CCN(C(=O)CCCCCCCCCCNC(=O)[C@@H]([C@H](C)CC)n3cc(CCCCCN)nn3)CC2)n1"
  MEASURED VALUE: "5.33 µM"
- COMPOUND: "Oc1cccc2ccc(Nc3ccccn3)nc12"
  MEASURED VALUE: "2.16 µM"
- COMPOUND: "Cc1ccc(C(=O)NNc2c3ccccc3nc3ccccc23)cc1"
  MEASURED VALUE: "27.5 µM"
- COMPOUND: "O=c1[nH]cc(F)c(=O)[nH]1"
  MEASURED VALUE: "4.25 µM"
- COMPOUND: "O=S(=O)(c1ccccc1)N(CC(O)Cn1c2ccccc2c2ccccc21)c1ccccc1 (centres undefined)"
  MEASURED VALUE: "11.1 µM"
- COMPOUND: "O=S(=O)(Nc1cc(Sc2cccc3cccnc23)c(O)c2ccccc12)c1ccc(F)cc1"
  MEASURED VALUE: "2.82 µM"
- COMPOUND: "COc1ccc(-n2c(CNc3ccc(C)cc3)nnc2SCc2ccccc2)cc1"
  MEASURED VALUE: "33.3 µM"
- COMPOUND: "COc1ccc(N(C(=O)CCl)C(C(=O)NCCc2ccccc2)c2cccs2)cc1 (centres undefined)"
  MEASURED VALUE: "3.46 µM"
- COMPOUND: "Nc1nonc1-n1nnc(C(=O)N/N=C/c2cc(Br)ccc2O)c1CSC1=NCCS1"
  MEASURED VALUE: "1.54 µM"
- COMPOUND: "Oc1ccccc1NCC(O)Cn1ccc2ccccc21 (centres undefined)"
  MEASURED VALUE: "28 µM"
- COMPOUND: "CSc1ccc(C(=O)/C=C/c2ccc(N)cc2)cc1"
  MEASURED VALUE: "21.7 µM"
- COMPOUND: "COc1ccc(C(C[N+](=O)[O-])c2c(-c3ccccc3)cc3ccccn23)cc1 (centres undefined)"
  MEASURED VALUE: "12.8 µM"
- COMPOUND: "COc1ccc(C(=O)Cn2nc(CNc3ccc(Br)cc3)[n+]3c2CCCCC3)cc1"
  MEASURED VALUE: "7.74 µM"
- COMPOUND: "COc1cccc(/C=N/NC(=O)c2ccc(-c3ccccc3)cc2)c1O"
  MEASURED VALUE: "1.08 µM"
- COMPOUND: "CCc1ccc(C(c2c(C)nn(-c3ccccc3)c2N)c2c(C)nn(-c3ccccc3)c2N)cc1"
  MEASURED VALUE: "46.1 µM"
- COMPOUND: "CC[n+]1c(/C=C/C=C/c2ccc(N(C)C)cc2)sc2ccccc21"
  MEASURED VALUE: "1.5 µM"
- COMPOUND: "NNC(=O)CNC(c1ccccc1)c1cc(Br)ccc1NC(=O)c1ccc(Br)cc1 (centres undefined)"
  MEASURED VALUE: "39.5 µM"
- COMPOUND: "CCOC(=O)COc1ccccc1/C=C\\[N+](=O)[O-]"
  MEASURED VALUE: "2.85 µM"
- COMPOUND: "c1csc(C2Nc3ccccc3-c3nc4ccccc4n32)c1 (centres undefined)"
  MEASURED VALUE: "33.7 µM"
- COMPOUND: "COc1cccc(-c2nnc3sc(-c4ccc(C)cc4)nn23)c1"
  MEASURED VALUE: "44.3 µM"
- COMPOUND: "c1ccc2c(c1)CCN(c1ncnc3c1[nH]c1ccccc13)C2"
  MEASURED VALUE: "10.7 µM"
- COMPOUND: "O=C1C(Nc2ccccc2)=C/C(=N/S(=O)(=O)c2cccs2)c2ccccc21"
  MEASURED VALUE: "1.5 µM"
- COMPOUND: "O=c1c(Cl)c(Cl)cnn1-c1ccccc1"
  MEASURED VALUE: "1.41 µM"

---

tested on: THP-1 viability, CellTiter-Glo luminescence, 72 h; assay: THP-1 cell cytotoxicity, dose response, cytotoxicity control for Salmonella PhoP regulon inhibitors, S. typhimurium screen hits (AID 2253)
# reported EC50; entries follow

- MOLECULE: "CC(C)CCNCC(O)CON=C1c2ccccc2-c2ccccc21 (stereo unspecified)"
  ASSAYED TARGET: "THP-1 viability, CellTiter-Glo luminescence, 72 h"
  EC50: "10.2 µM"
- MOLECULE: "O=C(/C=C/c1ccco1)Oc1cc(Br)cc(/C=N/NC(=O)c2ccccc2O)c1"
  ASSAYED TARGET: "THP-1 viability, CellTiter-Glo luminescence, 72 h"
  EC50: "0.35 µM"
- MOLECULE: "CO[C@H]1C=CO[C@@]2(C)Oc3c(C)c(O)c4c(O)c(c(C=NN5CCN(C)CC5)c(O)c4c3C2=O)NC(=O)C(C)=CC=C[C@H](C)[C@H](O)[C@@H](C)[C@@H](O)[C@@H](C)[C@H](OC(C)=O)[C@@H]1C"
  ASSAYED TARGET: "THP-1 viability, CellTiter-Glo luminescence, 72 h"
  EC50: "33 µM"
- MOLECULE: "CC(=O)NC(c1cccc([N+](=O)[O-])c1)c1ccc2cccnc2c1O (stereo unspecified)"
  ASSAYED TARGET: "THP-1 viability, CellTiter-Glo luminescence, 72 h"
  EC50: "0.49 µM"
- MOLECULE: "O=C(Nc1ccc(O)cc1)c1cc2n(n1)C(C(F)(F)F)CC(c1ccco1)N2 (stereo unspecified)"
  ASSAYED TARGET: "THP-1 viability, CellTiter-Glo luminescence, 72 h"
  EC50: "11.9 µM"
- MOLECULE: "c1ccc(Cc2nnc(-c3ccccc3)o2)cc1"
  ASSAYED TARGET: "THP-1 viability, CellTiter-Glo luminescence, 72 h"
  EC50: "30.7 µM"
- MOLECULE: "Cc1scc(C(=O)N/N=C/c2ccc([N+](=O)[O-])o2)c1C"
  ASSAYED TARGET: "THP-1 viability, CellTiter-Glo luminescence, 72 h"
  EC50: "19.9 µM"
- MOLECULE: "COc1ccc(C(C[N+](=O)[O-])n2nc(C)cc2C)cc1 (stereo unspecified)"
  ASSAYED TARGET: "THP-1 viability, CellTiter-Glo luminescence, 72 h"
  EC50: "10.1 µM"
- MOLECULE: "Cc1[nH]c2ccccc2c1C(O)CN1CCN(c2cccc(C(F)(F)F)c2)CC1 (stereo unspecified)"
  ASSAYED TARGET: "THP-1 viability, CellTiter-Glo luminescence, 72 h"
  EC50: "9.39 µM"
- MOLECULE: "O=C(N/N=C\\c1cccc([N+](=O)[O-])c1O)C1COc2ccccc2O1 (stereo unspecified)"
  ASSAYED TARGET: "THP-1 viability, CellTiter-Glo luminescence, 72 h"
  EC50: "21.5 µM"
- MOLECULE: "O=c1[nH][nH]c(-c2ccccc2O)c1C(C[N+](=O)[O-])c1cccc(Cl)c1 (stereo unspecified)"
  ASSAYED TARGET: "THP-1 viability, CellTiter-Glo luminescence, 72 h"
  EC50: "33.4 µM"
- MOLECULE: "COc1cc([N+](=O)[O-])cc(/C=N/NC(=O)c2cccnc2)c1O"
  ASSAYED TARGET: "THP-1 viability, CellTiter-Glo luminescence, 72 h"
  EC50: "32 µM"
- MOLECULE: "COc1ccc(-c2csc(NCc3ccco3)n2)cc1"
  ASSAYED TARGET: "THP-1 viability, CellTiter-Glo luminescence, 72 h"
  EC50: "38.5 µM"
- MOLECULE: "COc1ccc(CNC[C@@H](CCCCN(C)Cc2ccc(OC)cc2)N2C[C@H](c3ccccc3)N(CCc3ccc(Cl)c(Cl)c3)C(=O)C2=O)cc1"
  ASSAYED TARGET: "THP-1 viability, CellTiter-Glo luminescence, 72 h"
  EC50: "3.93 µM"
- MOLECULE: "O=C(NCCNc1ccc([N+](=O)[O-])cc1C(F)(F)F)c1cccc(F)c1"
  ASSAYED TARGET: "THP-1 viability, CellTiter-Glo luminescence, 72 h"
  EC50: "47.5 µM"
- MOLECULE: "CCCCOc1ccc(CSC(=N)N)cc1[N+](=O)[O-]"
  ASSAYED TARGET: "THP-1 viability, CellTiter-Glo luminescence, 72 h"
  EC50: "16.5 µM"
- MOLECULE: "COc1ccccc1Nc1nc(NCc2ccco2)c2ccccc2n1"
  ASSAYED TARGET: "THP-1 viability, CellTiter-Glo luminescence, 72 h"
  EC50: "16.2 µM"
- MOLECULE: "COc1ccc(-c2c/c(=N\\c3nc(-c4ccccc4)c(C)s3)c3ccccc3o2)cc1O"
  ASSAYED TARGET: "THP-1 viability, CellTiter-Glo luminescence, 72 h"
  EC50: "2.36 µM"
- MOLECULE: "c1ccc2cc(CSCc3nc4ccccc4[nH]3)ccc2c1"
  ASSAYED TARGET: "THP-1 viability, CellTiter-Glo luminescence, 72 h"
  EC50: "42.6 µM"
- MOLECULE: "NNC(=S)Nc1ccc(Cl)cc1"
  ASSAYED TARGET: "THP-1 viability, CellTiter-Glo luminescence, 72 h"
  EC50: "48.1 µM"
- MOLECULE: "O=C(NCCN1CCOCC1)c1ccc2ccccc2c1"
  ASSAYED TARGET: "THP-1 viability, CellTiter-Glo luminescence, 72 h"
  EC50: "< 0.1 µM"
